- target: Human CB2R (Cannabanoid receptor 2) (Homo sapiens (Human))
- Sequence (P34972 whole entry): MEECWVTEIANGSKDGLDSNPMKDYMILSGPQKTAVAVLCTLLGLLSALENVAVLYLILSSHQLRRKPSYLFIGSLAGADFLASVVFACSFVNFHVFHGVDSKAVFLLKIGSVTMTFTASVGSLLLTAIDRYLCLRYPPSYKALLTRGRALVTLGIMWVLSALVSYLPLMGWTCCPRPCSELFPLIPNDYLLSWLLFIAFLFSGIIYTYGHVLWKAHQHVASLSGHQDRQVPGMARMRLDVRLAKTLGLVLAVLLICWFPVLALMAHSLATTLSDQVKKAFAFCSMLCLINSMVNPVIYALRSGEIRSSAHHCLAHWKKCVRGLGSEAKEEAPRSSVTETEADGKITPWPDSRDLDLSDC
- assay-protocol: CB-2 in vitro cAMP (HTRF) assay in HEK-293 cells
- experimental-parameters: HEK-293 cells stably transfected with human CB2R, 250 nM Forskolin, mean where tested more than once, read-out: CB-2 (HEK_cAMP) EC50
pEC50: −log10 of the molar value.

{"compound": "NC(=O)c1csc(CN2CCC(c3c4cc(C(c5ccc(Cl)cc5)c5ccc(Cl)cc5)ccc4nn3C3CC3)CC2)c1 [Compound 237]", "pEC50": "< 5.00"}
{"compound": "NC(=O)CCC(=O)N1CCC(c2n[nH]c3ccc(C(c4ccc(Cl)cc4)c4ccc(Cl)cc4)cc23)CC1 [Compound 43]", "pEC50": "< 5.00"}
{"compound": "O=C(O)c1ccc([C@H](c2ccc(Cl)cc2)c2ccc3[nH]nc(C4CCN(S(=O)(=O)C(F)(F)F)CC4)c3c2)cc1 [Compound 231]", "pEC50": "< 5.00"}
{"compound": "CC(=O)n1nc(N2CCN(S(=O)(=O)C(F)(F)F)CC2)c2cc(C(c3ccc(Cl)cc3)c3ccc(Cl)cc3)ccc21 [Compound 44]", "pEC50": "< 5.00"}
{"compound": "O=S(=O)(N1CCC(c2nn(-c3cccc(Cl)c3)c3ccc(C(c4ccc(Cl)cc4)c4ccc(Cl)cc4)cc23)CC1)C(F)(F)F [Compound 47]", "pEC50": "< 5.00"}
{"compound": "COC(=O)CC(=O)N1CCC(c2n[nH]c3ccc(C(c4ccc(Cl)cc4)c4ccc(Cl)cc4)cc23)CC1 [Compound 51]", "pEC50": "< 5.00"}
{"compound": "Cc1ccc(C(c2ccc(C)cc2)c2ccc3c(c2)c(C2CCN(Cc4cccc(C(=O)O)c4)CC2)nn3C2CC2)cc1 [Compound 244]", "pEC50": "< 5.00"}
{"compound": "NC(=O)c1ccccc1Cn1nc(N2CCN(S(=O)(=O)C(F)(F)F)CC2)c2cc(C(c3ccc(Cl)cc3)c3ccc(Cl)cc3)ccc21 [Compound 55]", "pEC50": "< 5.00"}
{"compound": "O=S(=O)(N1CCC(c2nn(-c3ccc(OC(F)(F)F)cc3)c3ccc(C(c4ccc(Cl)cc4)c4ccc(Cl)cc4)cc23)CC1)C(F)(F)F [Compound 49]", "pEC50": "< 5.00"}
{"compound": "NC(=O)c1cccc(S(=O)(=O)N2CCC(c3c4cc(C(c5ccc(Cl)cc5)c5ccc(Cl)cc5)ccc4nn3C3CC3)CC2)c1 [Compound 140]", "pEC50": "< 5.00"}
{"compound": "CCOC(=O)Cn1nc(C2CCN(S(=O)(=O)C(F)(F)F)CC2)c2cc(C(c3ccc(Cl)cc3)c3ccc(Cl)cc3)ccc21 [Compound 75]", "pEC50": "< 5.00"}
{"compound": "NC(=O)c1ccccc1C(=O)N1CCC(c2c3cc(C(c4ccc(Cl)cc4)c4ccc(Cl)cc4)ccc3nn2C2CC2)CC1 [Compound 124]", "pEC50": "< 5.00"}
{"compound": "NC(=O)c1ccc(C(=O)N2CCC(c3nn(C4CC4)c4ccc(C(c5ccc(Cl)cc5)c5ccc(Cl)cc5)cc34)CC2)cc1 [Compound 104]", "pEC50": "< 5.00"}
{"compound": "CC(C)(C)OC(=O)N1CCC(Nc2n[nH]c3ccc(C(c4ccc(Cl)cc4)c4ccc(Cl)cc4)cc23)CC1 [Compound 74]", "pEC50": "< 5.00"}
{"compound": "CC(c1cccc(C(=O)O)c1)N1CCC(c2n[nH]c3ccc(C(c4ccc(Cl)cc4)c4ccc(Cl)cc4)cc23)C1 (centres unmarked) [Compound 277]", "pEC50": 5.15}
{"compound": "O=C(O)CCC(=O)N1CCC(c2c3cc(C(c4ccc(Cl)cc4)c4ccc(Cl)cc4)ccc3nn2C2CC2)CC1 [Compound 135]", "pEC50": "< 5.00"}
{"compound": "NC(=O)c1ccc(C(=O)N2CCC(c3c4cc(C(c5ccc(Cl)cc5)c5ccc(Cl)cc5)ccc4nn3C3CC3)CC2)cc1 [Compound 114]", "pEC50": 5.00}
{"compound": "O=C(O)c1cc(S(=O)(=O)N2CCC(c3c4cc(C(c5ccc(Cl)cc5)c5ccc(Cl)cc5)ccc4nn3C3CC3)CC2)ccc1F [Compound 162]", "pEC50": 5.28}
{"compound": "CC(C)(C)OC(=O)N1CCC(c2nn(CCO)c3ccc(C(c4ccc(Cl)cc4)c4ccc(Cl)cc4)cc23)CC1 [Compound 76]", "pEC50": "< 5.00"}
{"compound": "NC(=O)Cc1ccc(N2CCC(c3c4cc(C(c5ccc(Cl)cc5)c5ccc(Cl)cc5)ccc4nn3C3CC3)CC2)cc1 [Compound 186]", "pEC50": "< 5.00"}
{"compound": "CNC(=O)c1ccc(S(=O)(=O)N2CCC(c3c4cc(C(c5ccc(Cl)cc5)c5ccc(Cl)cc5)ccc4nn3C3CC3)CC2)cc1F [Compound 176]", "pEC50": "< 5.00"}
{"compound": "O=S(=O)(N1CCC(Nc2n[nH]c3ccc(C(c4ccc(Cl)cc4)c4ccc(Cl)cc4)cc23)CC1)C(F)(F)F [Compound 77]", "pEC50": "< 5.00"}
{"compound": "O=C(O)c1ccc(CS(=O)(=O)N2CCC(c3nn(C4CC4)c4ccc(C(c5ccc(Cl)cc5)c5ccc(Cl)cc5)cc34)CC2)s1 [Compound 236]", "pEC50": "< 5.00"}
{"compound": "NC(=O)c1ccc(S(=O)(=O)N2CCC(Nc3n[nH]c4ccc(C(c5ccc(Cl)cc5)c5ccc(Cl)cc5)cc34)CC2)cc1 [Compound 120]", "pEC50": "< 5.00"}
{"compound": "COc1cc(S(=O)(=O)N2CCC(c3c4cc(C(c5ccc(Cl)cc5)c5ccc(Cl)cc5)ccc4nn3C3CC3)CC2)ccc1C(=O)O [Compound 157]", "pEC50": 5.39}
{"compound": "O=S(=O)(C(F)F)N1CCC(c2n[nH]c3ccc(C(c4ccc(Cl)cc4)c4ccc(Cl)cc4)cc23)CC1 [Compound 81]", "pEC50": "< 5.00"}

----------
- target: Human CB1R (Cannabanoid receptor 1) (Homo sapiens (Human))
- Sequence (P21554 whole entry): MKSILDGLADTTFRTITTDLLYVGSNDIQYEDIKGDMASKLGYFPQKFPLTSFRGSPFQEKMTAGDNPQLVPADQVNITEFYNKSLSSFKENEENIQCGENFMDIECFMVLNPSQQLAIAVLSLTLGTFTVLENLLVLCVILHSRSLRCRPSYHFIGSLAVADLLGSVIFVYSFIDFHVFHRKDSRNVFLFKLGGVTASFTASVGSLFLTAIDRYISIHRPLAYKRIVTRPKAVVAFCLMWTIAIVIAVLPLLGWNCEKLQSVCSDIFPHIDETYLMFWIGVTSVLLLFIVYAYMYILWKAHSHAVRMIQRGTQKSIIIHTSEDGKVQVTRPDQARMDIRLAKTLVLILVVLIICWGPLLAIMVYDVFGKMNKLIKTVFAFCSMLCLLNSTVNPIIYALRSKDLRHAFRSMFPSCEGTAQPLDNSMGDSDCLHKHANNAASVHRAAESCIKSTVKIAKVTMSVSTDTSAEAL
- assay-protocol: CB-1 in vitro cAMP (HTRF) assay in HEK-293 cells
- experimental-parameters: HEK-293 cells stably transfected with human CB1R, 250 nM Forskolin, mean where tested more than once, read-out: CB-1 (HEK_cAMP) EC50
Binning rule for recorded EC50: group 1 (below 20 nM), group 2 (20 nM to below 200 nM), group 3 (200 nM or more)

{"compound": "O=C(O)c1ccc(S(=O)(=O)N2CCC(c3n[nH]c4ccc(C(c5ccc(Cl)cc5)c5ccc(Cl)cc5)cc34)CC2)cc1", "group": "group 3"}
{"compound": "COc1ccc(C(c2ccc(OC)cc2)c2ccc3[nH]nc(C4CCN(S(=O)(=O)C(F)(F)F)CC4)c3c2)cc1", "group": "group 1"}
{"compound": "NC(=O)COc1cccc(N2CCC(c3c4cc(C(c5ccc(Cl)cc5)c5ccc(Cl)cc5)ccc4nn3C3CC3)CC2)c1", "group": "group 2"}
{"compound": "O=C(O)c1cccc(S(=O)(=O)N2CCC(c3nn(CCO)c4ccc(C(c5ccc(Cl)cc5)c5ccc(Cl)cc5)cc34)CC2)c1", "group": "group 2"}
{"compound": "NC(=O)COc1cccc(N2CCC(c3nn(C4CC4)c4ccc(C(c5ccc(Cl)cc5)c5ccc(Cl)cc5)cc34)CC2)c1", "group": "group 2"}
{"compound": "COC(=O)c1cccc(CN2CCC(c3n[nH]c4ccc(C(c5ccc(Cl)cc5)c5ccc(Cl)cc5)cc34)CC2)c1", "group": "group 3"}
{"compound": "O=S(=O)(N1CCC(c2nn(-c3ccc(OC(F)(F)F)cc3)c3ccc(C(c4ccc(Cl)cc4)c4ccc(Cl)cc4)cc23)CC1)C(F)(F)F", "group": "group 1"}
{"compound": "O=S(=O)(N1CCC(c2n[nH]c3ccc(C(c4ccc(Cl)cc4)c4ccc(Cl)cc4)cc23)CC1)C(F)(F)F [Compound 17]", "group": "group 1"}
{"compound": "O=C(O)c1ccc(CN2CCC(c3c4cc(C(c5ccc(Cl)cc5)c5ccc(Cl)cc5)ccc4nn3C3CC3)CC2)s1", "group": "group 1"}
{"compound": "O=S(=O)(N1CCC(Nc2n[nH]c3ccc(C(c4ccc(Cl)cc4)c4ccc(Cl)cc4)cc23)CC1)C(F)(F)F", "group": "group 2"}
{"compound": "NC(=O)CS(=O)(=O)N1CCC(c2c3cc(C(c4ccc(Cl)cc4)c4ccc(Cl)cc4)ccc3nn2C2CC2)CC1", "group": "group 2"}
{"compound": "O=C(O)Cc1ccc(N2CCC(c3nn(C4CC4)c4ccc(C(c5ccc(Cl)cc5)c5ccc(Cl)cc5)cc34)CC2)cc1", "group": "group 3"}
{"compound": "COC(=O)c1ccc(CN2CCC(c3n[nH]c4ccc(C(c5ccc(Cl)cc5)c5ccc(Cl)cc5)cc34)CC2)cc1", "group": "group 3"}
{"compound": "O=C(O)c1cccc(CN2CCC(c3nn(C4CC4)c4ccc(C(c5ccc(Cl)cc5)c5ccc(C(F)(F)F)cc5)cc34)CC2)c1 (centres unmarked)", "group": "group 2"}
{"compound": "NC(=O)CCC(=O)N1CCC(c2n[nH]c3ccc(C(c4ccc(Cl)cc4)c4ccc(Cl)cc4)cc23)CC1", "group": "group 2"}
{"compound": "O=C(O)c1ccc(CN2CCC(c3nn(C4CC4)c4ccc(C(c5ccc(Cl)cc5)c5ccc(Cl)cc5)cc34)CC2)o1", "group": "group 2"}
{"compound": "CNC(=O)c1cc(S(=O)(=O)N2CCC(c3c4cc(C(c5ccc(Cl)cc5)c5ccc(Cl)cc5)ccc4nn3C3CC3)CC2)ccc1OC", "group": "group 1"}
{"compound": "NC(=O)c1ccc(C(=O)N2CCC(c3c4cc(C(c5ccc(Cl)cc5)c5ccc(Cl)cc5)ccc4nn3C3CC3)CC2)cc1", "group": "group 3"}
{"compound": "NC(=O)c1ccc(S(=O)(=O)N2CCC(c3c4cc(C(c5ccc(Cl)cc5)c5ccc(Cl)cc5)ccc4nn3C3CC3)CC2)cc1", "group": "group 1"}
{"compound": "O=S(=O)(N1CCC(c2nn(-c3ccc(F)cc3)c3ccc(C(c4ccc(F)cc4)c4ccc(Cl)cc4)cc23)CC1)C(F)(F)F (centres unmarked)", "group": "group 2"}
{"compound": "O=S(=O)(N1CCC(c2n[nH]c3ccc(C(c4ccc(Cl)cc4)c4ccc(Cl)cc4)cc23)CC1)C(F)(F)F [Compound 173]", "group": "group 1"}
{"compound": "NC(=O)c1cccc(C(=O)N2CCC(c3nn(C4CC4)c4ccc(C(c5ccc(Cl)cc5)c5ccc(Cl)cc5)cc34)CC2)c1", "group": "group 2"}
{"compound": "COc1ccc(S(=O)(=O)N2CCC(c3c4cc(C(c5ccc(Cl)cc5)c5ccc(Cl)cc5)ccc4nn3C3CC3)CC2)cc1C(N)=O", "group": "group 1"}
{"compound": "NC(=O)COc1ccc(N2CCC(c3c4cc(C(c5ccc(Cl)cc5)c5ccc(Cl)cc5)ccc4nn3C3CC3)CC2)cc1", "group": "group 2"}
{"compound": "NC(=O)c1ccccc1C(=O)N1CCC(c2c3cc(C(c4ccc(Cl)cc4)c4ccc(Cl)cc4)ccc3nn2C2CC2)CC1 [Compound 141]", "group": "group 3"}
